Experiment: Selectivity index, ratio of CC50 for cytotoxicity against human A549 cells assessed as reduction in cell viability to EC50 for antiviral activity against SARS-CoV-2 3CL protease
Assay type: toxicity, cell-based
Conditions: read-out: Ratio CC50/EC50
measuredProperty: selectivity ratio

q: # selectivity ratio lookup, item COc1cccc2[nH]c(C(=O)N[C@@H](CC(C)C)C(=O)N[C@@H](C[C@@H]3CCCNC3=O)C(=O)COC(=O)c3c(C(F)(F)F)cc(C)nc3C)cc12
a: > 426

q: Now consider COc1cccc2[nH]c(C(=O)N[C@@H](CC(C)C)C(=O)N[C@@H](C[C@@H]3CCCNC3=O)C(=O)COC(=O)C3(C(F)(F)F)CCCCC3)cc12 and answer again.
a: > 333

Consider the additional compound presented here.
q: # selectivity ratio lookup, item COc1cccc2[nH]c(C(=O)N[C@@H](CC(C)C)C(=O)N[C@@H](C[C@@H]3CCCNC3=O)C(=O)COC(=O)c3c(C(F)(F)F)cccc3C(F)(F)F)cc12
a: > 1250
